Reference source: the FLAb antibody collection

assay: patients with anti-drug antibodies; higher = more immunogenic
Measured Quantity: patients with anti-drug antibodies (%)
Form entry: value (%) — number only.

Completed entries (count: 4):
Kindly note the recorded patients with anti-drug antibodies for unnamed (protein) chain 1: QVQLQQWGAGLLKPSETLSLTCAVYGGSFSGYYWSWIRQPPGKGLEWIGEINHSGSTNYNPSLKSRVTISVDTSKNQFSLKLSSVTAADTAVYYCARGYYDILTGYYYYFDYWGQGTLVTVSS chain 2: EIVLTQSPATLSLSPGERATLSCRASQSVSRYLAWYQQKPGQAPRLLIYDASNRATGIPARFSGSGSGTDSTLTISSLEPEDFAVYYCQQRSNWPRTFGQGTKVEIK , which is 4.4

Reported patients with anti-drug antibodies ( unnamed (protein) chain 1: EVQLLESGGGLVQPGGSLRLSCAASGFTFSSYAMNWVRQAPGKGLEWVSAITMSGITAYYTDDVKGRFTISRDNSKNTLYLQMNSLRAEDTAVYYCAKEEFLPGTHYYYGMDVWGQGTTVTVSS chain 2: AIQMTQSPSSLSASVGDRVTITCRASQGIRNDLGWYQQKPGKAPKLLIYSASTLQSGVPSRFSGSGSGTDFTLTISSLQPEDFATYCLQDYNYPWTFGQGTKVEIK ) = 2.5

Form field patients with anti-drug antibodies, entry unnamed (protein) chain 1: QVTLRESGPALVKPTQTLTLTCTFSGFSLSTSGMSVGWIRQPPGKALEWLADIWWDDKKDYNPSLKSRLTISKDTSKNQVVLKVTNMDPADTATYYCARSMITNWYFDVWGAGTTVTVSS chain 2: DIQMTQSPSTLSASVGDRVTITCKCQLSVGYMHWYQQKPGKAPKLLIYDTSKLASGVPSRFSGSGSGTEFTLTISSLQPDDFATYYCFQGSGYPFTFGGGTKLEIK : 1.1

Item: unnamed (protein) chain 1: QVQLVQSGAEVKKPGASVKISCKASGYSFTAYYIHWVKQAPGQGLEWIGYISNYNRATNYNQKFKGRVTFTTDTSTSTAYMELRSLRSDDTAVYYCARDYDYDVGMDYWGQGTLVTVSS chain 2: DIVMTQSPDSLAVSLGERATISCRASESVDNYGISFMKWFQQKPGQPPKLLIYAASNQGSGVPDRFSGSGSGTDFTLTISSLQAEDVAVYYCQQSKEVPWTFGGGTKVEIK | patients with anti-drug antibodies: 29

Here is another protein to look at.
Lab book: patients with anti-drug antibodies of unnamed (protein) chain 1: QVQLVQSGAEVKKPGASVKVSCKASGYTFTSYWMHWVRQAPGQGLEWIGNINPSNGGTNYNEKFKSKATMTRDTSTSTAYMELSSLRSEDTAVYYCELMQGYWGQGTLVTVSS chain 2: DIVMTQSPLSNPVTLGQPVSISCRSSKSLLYKDGKTYLNWFLQRPGQSPQLLIYLMSTRASGVPDRFSGGGSGTDFTLKISRVEAEDVGVYYCQQLVEYPLTFGQGTKLEIK noted as 2.5
